Hello, the source for this data is ChEMBL document CHEMBL4699575, in case you need it.

# Method Summary: Half life in ICR mouse at 10 mg/kg, ip measured upto 8 hrs
# Type: ADME, organism-based
# Measurement Context: in vivo
Quantity Kind: half-life (min)

Molecule: O=C1CCC(N2C(=O)c3cccc(NCCCCCC(=O)N4CCN(c5cccc(-c6cnc7ccc(N8CCC[C@@H]8c8cccc(F)c8)nn67)n5)CC4)c3C2=O)C(=O)N1 (stereo partly specified)
Quantity Kind: half-life
Unit Descriptor: min
Recorded Number: 54

---

# Method Summary: Cmax in ICR mouse at 10 mg/kg, ip measured for 1 hr
# Type: ADME, organism-based
# Parameters: route intraperitoneal, dose 10 mg/kg, time 1 hrs
# Measurement Context: in vivo

Compound: O=C1CCC(N2C(=O)c3cccc(NCCCCCC(=O)N4CCN(c5cccc(-c6cnc7ccc(N8CCC[C@@H]8c8cccc(F)c8)nn67)n5)CC4)c3C2=O)C(=O)N1 (some centres not stated)
Cmax [nM]: 2050

Compound: O=C1CCC(N2C(=O)c3cccc(NCCOCCC(=O)N4CCN(c5cccc(-c6cnc7ccc(N8CCC[C@@H]8c8cccc(F)c8)nn67)n5)CC4)c3C2=O)C(=O)N1 (some centres not stated)
Cmax [nM]: 1640
